molecular target: PDE10A (Homo sapiens (Human)); conditions: read-out: Inhibition of PDE10A, IC50
Sequence (Q9Y233 other isoform, or with tags, fused parts or gaps): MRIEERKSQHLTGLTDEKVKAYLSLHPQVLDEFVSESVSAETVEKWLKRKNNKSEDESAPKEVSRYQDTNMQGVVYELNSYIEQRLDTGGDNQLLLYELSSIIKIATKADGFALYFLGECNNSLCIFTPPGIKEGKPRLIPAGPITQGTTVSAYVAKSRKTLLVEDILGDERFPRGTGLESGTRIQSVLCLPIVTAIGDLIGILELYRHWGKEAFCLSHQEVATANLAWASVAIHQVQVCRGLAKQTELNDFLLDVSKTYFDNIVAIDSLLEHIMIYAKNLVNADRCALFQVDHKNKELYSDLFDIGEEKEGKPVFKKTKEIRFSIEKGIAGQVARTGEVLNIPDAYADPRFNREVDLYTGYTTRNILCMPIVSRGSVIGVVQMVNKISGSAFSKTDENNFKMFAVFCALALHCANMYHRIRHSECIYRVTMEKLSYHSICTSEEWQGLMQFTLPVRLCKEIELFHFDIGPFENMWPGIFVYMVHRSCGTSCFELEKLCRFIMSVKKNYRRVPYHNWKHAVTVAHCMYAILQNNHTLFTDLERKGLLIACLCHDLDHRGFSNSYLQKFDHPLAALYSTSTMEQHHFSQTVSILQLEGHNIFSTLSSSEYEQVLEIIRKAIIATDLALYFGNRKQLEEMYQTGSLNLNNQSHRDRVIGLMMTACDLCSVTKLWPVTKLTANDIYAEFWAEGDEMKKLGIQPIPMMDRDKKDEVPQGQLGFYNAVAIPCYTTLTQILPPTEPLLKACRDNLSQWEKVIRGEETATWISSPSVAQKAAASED
Below: a set of entries, each annotated with reported pIC50.
Scale note: pIC50 = -log10(concentration in M).

Task item: Query for PDE10A (Homo sapiens (Human)): what pIC50 does the record show for Cc1nc2ccc(Cl)cc2n2c(-c3ccccc3Cl)nnc12 [Example 1] ?
Reply: 7.35

Task item: Item: COc1ccc2c(c1)nc(C)c1nnc(-c3ccccc3Cl)n12 [Example 74]
Reply: 7.17

Task item: Item: Cc1nc2ccc(Cl)cc2n2c(-c3cc(OCC(C)O)ccc3Cl)nnc12 (stereo not drawn) [Example 102]
Reply: 6.21

Task item: Item: Cc1nc2ccc(C(F)(F)F)cc2n2c(-c3ccccc3F)nnc12 [Example 66]
Reply: 6.33
